Origin of measurements: patent US12552834

- measurement_target: T1, ENAH EVH1 domain (monomeric, wild type) (human, UniProt Q03173 1-111 (mouse entry))
- T1 construct: ENAH residue numbers in the text count from the Met at position 25 of this entry; also called ENAH EVH1 WT; Mena EVH1 WT
- T1 sequence (Q03173 other isoform, or with tags, fused parts or gaps limits assumed): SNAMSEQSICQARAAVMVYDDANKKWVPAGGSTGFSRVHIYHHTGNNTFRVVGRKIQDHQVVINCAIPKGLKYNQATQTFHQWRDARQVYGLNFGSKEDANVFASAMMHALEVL
- assay_summary: BLI, steady state; SUMO-peptide immobilised, EVH1 monomer in solution
measurement_name: pKd
Here pKd is given on a logarithmic scale as minus log10 of the concentration in mol/L.

Would you please look over these solved cases?
PCARE 36-residue peptide (PCARE813-848) (biotinylated (BAP tag), Tested in BLI as a biotinylated BAP-6xHis-SUMO-peptide fusion; also called PCARE 36-mer) peptide: MAGGLNDIFEAQKIEWHEDTGGSSHHHHHHGSGSGSDSEVNQEAKPEVKPEVKPETHINLKVSDGSSEIFFKIKKTTPLRRLMEAFAKRQGKEMDSLTFLYDGIEIQADQTPEDLDMEDNDIIEAHREQIGGSGSGAAKSEELSCEMEGNLEHLPPPPMEVLMDKSFASLES = 6.72
KIAA1522 36-mer peptide (biotinylated (BAP tag), Tested as a biotinylated BAP-6xHis-SUMO-peptide fusion; also called KIAAA1522) peptide: MAGGLNDIFEAQKIEWHEDTGGSSHHHHHHGSGSGSDSEVNQEAKPEVKPEVKPETHINLKVSDGSSEIFFKIKKTTPLRRLMEAFAKRQGKEMDSLTFLYDGIEIQADQTPEDLDMEDNDIIEAHREQIGGSGSGPPAPEEQDLSMADFPPPEEAFFSVASPEPAGPSGSP = 4.85

// lookup pKd for FBLIM1 36-mer peptide (biotinylated (BAP tag), Tested as a biotinylated BAP-6xHis-SUMO-peptide fusion) peptide: MAGGLNDIFEAQKIEWHEDTGGSSHHHHHHGSGSGSDSEVNQEAKPEVKPEVKPETHINLKVSDGSSEIFFKIKKTTPLRRLMEAFAKRQGKEMDSLTFLYDGIEIQADQTPEDLDMEDNDIIEAHREQIGGSGSGPPVLDGEDVLPDLDLLPPPPPPPPVLLPSEEEAPAP
4.80
